The values you see were collected from patent EP1401829B1.

- Tested on: B. subtilis
- protocol.notes: Minimal Inhibitory Concentration (MIC) determination, 96 well plates
- Type: cell-based, Bacillus subtilis
- condition: Bacillus subtilis; HBI medium, 16 to 18 hours at 37°C; read-out: MIC (µg/ml) B. subtilis
test.readout: MIC

>>> df
                            smiles_notation  measured_on  test_readout    obs_value
0  CCc1cc(Nc2cc(=O)n(CCCCN3CCN(c4ncc5c(=O)c(C(=O)O)cn(CC)c5n4)CC3)c(=O)[nH]2)ccc1C  B. subtilis           MIC  0.156 µg/mL
1  CCc1cc(Nc2cc(=O)n(CCCCN3CCN(c4c(F)cc5c(=O)c(C(=O)O)cn(CC)c5c4Cl)CC3)c(=O)[nH]2)ccc1C  B. subtilis           MIC  0.078 µg/mL
2  CCc1cc(Nc2cc(=O)n(CCCCN3CCN(c4cc5c(cc4F)c(=O)c(C(=O)O)cn5C4CC4)CC3)c(=O)[nH]2)ccc1C.CS(=O)(=O)O  B. subtilis           MIC  0.313 µg/mL

====

- Test system: B. subtilis
- protocol.notes: Minimal Inhibitory Concentration (MIC) determination, 96 well plates
- Format: cell-based, Bacillus subtilis
- condition: Bacillus subtilis; HBI medium, 16 to 18 hours at 37°C; read-out: MIC (µg/ml) B. subtilis
test.readout: MIC (µg/mL)

                                   compound  measured_on  obs_value
0  CCc1cc(Nc2cc(=O)n(CCCCN3CCN(c4c(F)cc5c(=O)c(C(=O)O)cn(C6CC6)c5c4F)CC3C)c(=O)[nH]2)ccc1C (stereo not drawn)  B. subtilis      0.156
1  CCc1cc(Nc2cc(=O)n(CCCCN3CCN(c4c(F)cc5c(=O)c(C(=O)O)cn(C6CC6)c5c4F)CC3CO)c(=O)[nH]2)ccc1C (stereo not drawn)  B. subtilis      0.235
2  Cc1ccc(Nc2cc(=O)n(CCCCN3CCN(c4c(F)cc5c(=O)c(C(=O)O)cn(C6CC6)c5c4F)C[C@@H]3C)c(=O)[nH]2)cc1C  B. subtilis      0.156
3  CCc1cc(Nc2cc(=O)n(CCCCCN3CC4CN(c5cc6c(cc5F)c(=O)c(C(=O)O)cn6C5CC5)CC4C3)c(=O)[nH]2)ccc1C (stereo not drawn)  B. subtilis        2.5
4  CCc1cc(Nc2ccc(CCCCN3CCN(c4cc5c(cc4F)c(=O)c(C(=O)O)cn5CC)CC3)c(=O)[nH]2)ccc1C  B. subtilis      0.625
5  CCc1cc(Nc2cc(=O)n(CCCCN3CCN(c4c(F)cc5c(=O)c(C(=O)O)cn(CC)c5c4F)CC3)c(=O)[nH]2)ccc1C  B. subtilis      0.156

====

- System: E. fecium
- protocol.notes: Minimal Inhibitory Concentration (MIC) determination, 96 well plates
- Type: cell-based, Enterococcus fecium
- condition: Enterococcus; HBI medium, 16 to 18 hours at 37°C; read-out: MIC (µg/ml) E. fecium
test.readout: MIC (µg/mL)

>>> df
                            smiles_notation  test_readout  units_text  obs_value
0  CCc1cc(Nc2cc(=O)n(CCCCN3CCN(c4cc5c(cc4F)c(=O)c(C(=O)O)cn5-c4ccc(F)cc4F)C[C@H]3C)c(=O)[nH]2)ccc1C           MIC       µg/mL       1.25
1  CCc1cc(Nc2cc(=O)n(CCCCN3CCN(c4cc5c(cc4F)c(=O)c(C(=O)O)cn5C4CC4)CC3)c(=O)[nH]2)ccc1C           MIC       µg/mL       1.25
2  O=C(O)c1cn(C2CC2)c2cc(N3CCN(CCCCn4c(=O)cc(NCc5ccc(Cl)c(Cl)c5)[nH]c4=O)CC3)c(F)cc2c1=O           MIC       µg/mL       1.25

====

Listed next: entries and their corresponding MIC.
- System: S. aureus
- protocol.notes: Minimal Inhibitory Concentration (MIC) determination, 96 well plates
- Format: cell-based, Staphylococcus aureus
- condition: Staphylococcus aureus; HBI medium, 16 to 18 hours at 37°C; read-out: MIC (µg/ml) S. aureus
- Description: The following methods were used to characterize representative compounds. Minimal Inhibitory Concentration (MIC) determinations. MIC values were determined in 96 well plates, with bacterial growth monitored at OD 600 nm in 200µl following an initial bacterial seeding at approximately 1x10^5 colony forming units (CFU)/ml. Each drug is evaluated at five concentrations, with five data points at each dilution. […] DNA polymerase activity (or inhibition thereof) was measured in a 96-well plate format. […]
test.readout: MIC (µg/mL)

>>> df
                                   compound  obs_value
0  CCc1cc(Nc2cc(=O)n(CCCCN3CCN(c4cc5c(cc4F)c(=O)c(C(=O)O)cn5-c4ccc(F)cc4F)C[C@H]3C)c(=O)[nH]2)ccc1C      0.625
1  CCn1cc(C(=O)O)c(=O)c2cc(F)c(N3CCNCC3)cc21 [nflxn, norfloxacin, reference compound]      0.625
2  CCc1cc(Nc2cc(=O)n(CCCCN3CCN(c4c(F)cc5c(=O)c(C(=O)O)cn(C6CC6)c5c4F)C[C@@H]3C)c(=O)[nH]2)ccc1C      0.313
3  O=C(O)c1cn(C2CC2)c2cc(N3CCN(CCCCn4c(=O)cc(Nc5ccc6c(c5)CCC6)[nH]c4=O)CC3)c(F)cc2c1=O      0.625
4  Cc1ccc(Nc2cc(=O)n(CCCCN3CCN(c4cc5c(cc4F)c(=O)c(C(=O)O)cn5C4CC4)C[C@H]3C)c(=O)[nH]2)cc1C      0.625
5  Cc1ccc(Nc2cc(=O)n(CCCCN3CCN(c4cc5c(cc4F)c(=O)c(C(=O)O)cn5C4CC4)C[C@@H]3C)c(=O)[nH]2)cc1C       1.25

====

- System: B. subtilis
- protocol.notes: Minimal Inhibitory Concentration (MIC) determination, 96 well plates
- Format: cell-based, Bacillus subtilis
- condition: Bacillus subtilis; HBI medium, 16 to 18 hours at 37°C; read-out: MIC (µg/ml) B. subtilis
Listed next: entries and their corresponding MIC.
test.readout: MIC (µg/mL)

                                   compound  measured_on  test_readout  obs_value
0  Cc1ccc(Nc2cc(=O)n(CCCCN3CCN(c4cc5c(cc4F)c(=O)c(C(=O)O)cn5C4CC4)CC3)c(=O)[nH]2)cc1Cl  B. subtilis           MIC      0.313
1  CC1CN(c2c(F)cc3c(=O)c(C(=O)O)cn(C4CC4)c3c2F)CCN1CCCCn1c(=O)cc(Nc2ccc3c(c2)CCC3)[nH]c1=O (stereo not drawn)  B. subtilis           MIC      0.117
2  CCc1cc(Nc2cc(=O)n(CCCCCN3CCCC4CN(c5cc6c(cc5F)c(=O)c(C(=O)O)cn6CC)CC43)c(=O)[nH]2)ccc1C (stereo not drawn)  B. subtilis           MIC        2.5
3  CCc1cc(Nc2cc(=O)n(CCCCN3CCN(c4c(F)cc5c(=O)c(C(=O)O)cn(C6CC6)c5c4F)C[C@@H]3C)c(=O)[nH]2)ccc1C  B. subtilis           MIC      0.156
4  O=C(O)c1cn(C2CC2)c2cc(N3CCNCC3)c(F)cc2c1=O [cflxn, ciprofloxacin, reference compound]  B. subtilis           MIC      0.156
5  CCc1cc(Nc2cc(=O)n(CCCCN3CCN(c4c(F)cc5c(=O)c(C(=O)O)cn(C6CC6)c5c4F)C[C@H]3C)c(=O)[nH]2)ccc1C  B. subtilis           MIC      0.156

====

Listed next: entries and their corresponding MIC.
- Test system: E. fecium
- protocol.notes: Minimal Inhibitory Concentration (MIC) determination, 96 well plates
- Format: cell-based, Enterococcus fecium
- condition: Enterococcus; HBI medium, 16 to 18 hours at 37°C; read-out: MIC (µg/ml) E. fecium
test.readout: MIC (µg/mL)

In [3]: df
Out[3]:
                                    compound  censoring_operator  obs_value
 0  Cc1ccc(Nc2cc(=O)n(CCCCN3CCN(c4c(F)cc5c(=O)c(C(=O)O)cn(C6CC6)c5c4F)C[C@@H]3C)c(=O)[nH]2)cc1C                   =       1.25
 1  CCc1cc(Nc2cc(=O)n(CCCCN3CCN(c4cc5c(cc4F)c(=O)c(C(=O)O)cn5-c4ccc(F)cc4F)CC3C)c(=O)[nH]2)ccc1C (stereo not drawn)                   =      0.625
 2  CCc1cc(Nc2cc(=O)n(CCCCN3CCN(c4cc5c(cc4F)c(=O)c(C(=O)O)cn5C4CC4)C(C)C3)c(=O)[nH]2)ccc1C (stereo not drawn)                   =       1.25
 3  Cc1ccc(Nc2cc(=O)n(CCCCN3CCN(c4cc5c(cc4F)c(=O)c(C(=O)O)cn5C4CC4)CC3)c(=O)[nH]2)cc1Cl                   =        3.7
 4  CCc1cc(Nc2cc(=O)n(CCCCN3CCN(c4cc5c(cc4F)c(=O)c(C(=O)O)cn5C4CC4)C[C@@H]3C)c(=O)[nH]2)ccc1C                   =      0.937
 5  CCc1cc(Nc2cc(=O)n(CCOCCN3CCN(c4cc5c(cc4F)c(=O)c(C(=O)O)cn5C4CC4)CC3)c(=O)[nH]2)ccc1C                   =          5
 6  CCc1cc(Nc2cc(=O)n(CCCCN3CCN(c4ncc5c(=O)c(C(=O)O)cn(CC)c5n4)CC3)c(=O)[nH]2)ccc1C                   =        3.7
 7  O=C(O)c1cn(C2CC2)c2cc(N3CCN(CCCCn4c(=O)cc(Nc5ccc6c(c5)CCC6)[nH]c4=O)CC3)c(F)cc2c1=O                   =        2.5
 8  CCc1cc(Nc2cc(=O)n(CCCCCCCN3CCN(c4cc5c(cc4F)c(=O)c(C(=O)O)cn5C4CC4)CC3)c(=O)[nH]2)ccc1C                   >         80
 9  CCc1cc(Nc2cc(=O)n(CCCCN3CCN(c4cc5c(cc4F)c(=O)c(C(=O)O)cn5C4CC4)C[C@H]3C)c(=O)[nH]2)ccc1C                   =      0.625
10  CCc1cccc(Nc2cc(=O)n(CCCCN3CCN(c4cc5c(cc4F)c(=O)c(C(=O)O)cn5C4CC4)CC3)c(=O)[nH]2)c1                   =        3.7
11  CCc1cc(Nc2cc(=O)n(CCCCN3CCN(c4c(F)cc5c(=O)c(C(=O)O)cn(C6CC6)c5c4F)C[C@@H]3C)c(=O)[nH]2)ccc1C                   =       1.87
